Each item that follows carries a reported GI50.
system: A498; test: Growth inhibition of human A498 cells after 48 hrs by sulforhodamine B assay; assay type: functional; conditions: A498, 48 h
The figure you give is taken to be in µM; do not add the unit.

Would you please look over these solved cases?
Qu. Tell me measured GI50 for C[C@H]1[C@@H](OCC(=O)CO[C@H]2O[C@@H]3O[C@@]4(C)CC[C@H]5[C@H](C)CC[C@@H]([C@H]2C)[C@@]35OO4)O[C@@H]2O[C@@]3(C)CC[C@H]4[C@H](C)CC[C@@H]1[C@@]24OO3 please.
Ans. 15.4

Qu. Tell me measured GI50 for C[C@H]1[C@@H](OCC(O)CO[C@@H]2C[C@@H]3CC[C@@H](C)[C@@H]4CC[C@@]5(C)OO[C@@]34[C@H](O2)O5)O[C@@H]2O[C@@]3(C)CC[C@H]4[C@H](C)CC[C@@H]1[C@@]24OO3 (stereo partly drawn) please.
Ans. 0.686

Qu. Tell me measured GI50 for C[C@H]1[C@@H](OCC(CO[C@H]2O[C@@H]3O[C@@]4(C)CC[C@H]5[C@H](C)CC[C@@H]([C@H]2C)[C@@]35OO4)OC(=O)CCC(=O)O)O[C@@H]2O[C@@]3(C)CC[C@H]4[C@H](C)CC[C@@H]1[C@@]24OO3 (stereo partly drawn) please.
Ans. 13.8

// below: GI50 requested for another compound
Qu. Tell me measured GI50 for C[C@H]1[C@H](OCCO[C@H]2O[C@@H]3O[C@@]4(C)CC[C@H]5[C@H](C)CC[C@@H]([C@H]2C)[C@@]35OO4)O[C@@H]2O[C@@]3(C)CC[C@H]4[C@H](C)CC[C@@H]1[C@@]24OO3 please.
Ans. 8.11

----------
tested on: A498; experiment: Growth inhibition of human A498 cells after 48 hrs by sulforhodamine B assay; format: functional; conditions: A498, 48 h
property label: GI50 (µM)
The figure you give is taken to be in µM; do not add the unit.

Would you please look over these solved cases?
Qu. Tell me measured GI50 for C[C@H]1[C@@H](O[C@H]2CC[C@@H](O[C@H]3O[C@@H]4O[C@@]5(C)CC[C@H]6[C@H](C)CC[C@@H]([C@H]3C)[C@@]46OO5)CC2)O[C@@H]2O[C@@]3(C)CC[C@H]4[C@H](C)CC[C@@H]1[C@@]24OO3 please.
Ans. 0.04

Qu. Tell me measured GI50 for C[C@H]1[C@H](OCCCCO[C@H]2O[C@@H]3O[C@@]4(C)CC[C@H]5[C@H](C)CC[C@@H]([C@H]2C)[C@@]35OO4)O[C@@H]2O[C@@]3(C)CC[C@H]4[C@H](C)CC[C@@H]1[C@@]24OO3 please.
Ans. 5.77

// below: GI50 requested for another molecule
Qu. Tell me measured GI50 for C[C@H]1[C@@H](OCCCO[C@H]2O[C@@H]3O[C@@]4(C)CC[C@H]5[C@H](C)CC[C@@H]([C@H]2C)[C@@]35OO4)O[C@@H]2O[C@@]3(C)CC[C@H]4[C@H](C)CC[C@@H]1[C@@]24OO3 please.
Ans. 14.7

----------
Each item that follows carries a reported IC50.
system: Plasmodium falciparum; assay: Antimalarial activity after 72 hrs against chloroquine-resistant Plasmodium falciparum W2 infected erythrocytes by LDH assay; assay type: functional, organism-based; conditions: W2, 72 h
The figure you give is taken to be in µM; do not add the unit.

Qu. Tell me measured IC50 for COCC(CO[C@H]1O[C@@H]2O[C@@]3(C)CC[C@H]4[C@H](C)CC[C@@H]([C@H]1C)[C@@]24OO3)O[C@H]1O[C@@H]2O[C@@]3(C)CC[C@H]4[C@H](C)CC[C@@H]([C@H]1C)[C@@]24OO3 (some centres not stated) please.
Ans. 4.7

// below: IC50 requested for another molecule
Qu. Tell me measured IC50 for C[C@H]1[C@@H](O[C@H]2O[C@@H]3O[C@@]4(C)CC[C@H]5[C@H](C)CC[C@@H]([C@H]2C)[C@@]35OO4)O[C@@H]2O[C@@]3(C)CC[C@H]4[C@H](C)CC[C@@H]1[C@@]24OO3 please.
Ans. 6.9

----------
system: TK-10; experiment: Growth inhibition of human TK10 cells after 48 hrs by sulforhodamine B assay; type: functional; conditions: TK-10, 48 h
Each item that follows carries a reported log10 of GI50.
Quick note: numbers are log10 of GI50, with nM as the unit.

Would you please look over these solved cases?
Qu. Tell me measured log10 of GI50 for C[C@H]1[C@@H](OCCCO[C@H]2O[C@@H]3O[C@@]4(C)CC[C@H]5[C@H](C)CC[C@@H]([C@H]2C)[C@@]35OO4)O[C@@H]2O[C@@]3(C)CC[C@H]4[C@H](C)CC[C@@H]1[C@@]24OO3 please.
Ans. 3.38

Qu. Tell me measured log10 of GI50 for C[C@H]1[C@H](OCCCCO[C@H]2O[C@@H]3O[C@@]4(C)CC[C@H]5[C@H](C)CC[C@@H]([C@H]2C)[C@@]35OO4)O[C@@H]2O[C@@]3(C)CC[C@H]4[C@H](C)CC[C@@H]1[C@@]24OO3 please.
Ans. 1.36

Qu. Tell me measured log10 of GI50 for C=C1[C@@H](OCCCO[C@H]2O[C@@H]3O[C@@]4(C)CC[C@H]5[C@H](C)CC[C@@H](C2=C)[C@@]35OO4)O[C@@H]2O[C@@]3(C)CC[C@H]4[C@H](C)CC[C@@H]1[C@@]24OO3 please.
Ans. 2.34

Qu. Tell me measured log10 of GI50 for C[C@H]1[C@@H](OCCO[C@H]2O[C@@H]3O[C@@]4(C)CC[C@H]5[C@H](C)CC[C@@H]([C@H]2C)[C@@]35OO4)O[C@@H]2O[C@@]3(C)CC[C@H]4[C@H](C)CC[C@@H]1[C@@]24OO3 please.
Ans. 2.31

Qu. Tell me measured log10 of GI50 for C[C@H]1[C@H](OCCO[C@H]2O[C@@H]3O[C@@]4(C)CC[C@H]5[C@H](C)CC[C@@H]([C@H]2C)[C@@]35OO4)O[C@@H]2O[C@@]3(C)CC[C@H]4[C@H](C)CC[C@@H]1[C@@]24OO3 please.
Ans. 1.81

// below: log10 of GI50 requested for another molecule
Qu. Tell me measured log10 of GI50 for C[C@H]1[C@@H](OCC(CO[C@H]2O[C@@H]3O[C@@]4(C)CC[C@H]5[C@H](C)CC[C@@H]([C@H]2C)[C@@]35OO4)OC(=O)CCC(=O)O)O[C@@H]2O[C@@]3(C)CC[C@H]4[C@H](C)CC[C@@H]1[C@@]24OO3 (some centres undefined) please.
Ans. 2.32

----------
system: NCI-H23; experiment: Growth inhibition of human NCI-H23 cells after 48 hrs by sulforhodamine B assay; format: functional; details: NCI-H23, 48 h
property label: GI50 (nM)
The figure you give is taken to be in nM; do not add the unit.

Qu. Tell me measured GI50 for C[C@H]1[C@@H](OCC(O)CO[C@@H]2C[C@@H]3CC[C@@H](C)[C@@H]4CC[C@@]5(C)OO[C@@]34[C@H](O2)O5)O[C@@H]2O[C@@]3(C)CC[C@H]4[C@H](C)CC[C@@H]1[C@@]24OO3 (some centres not stated) please.
Ans. 135

Qu. Tell me measured GI50 for C[C@H]1[C@@H](O[C@H]2CC[C@H](O[C@H]3O[C@@H]4O[C@@]5(C)CC[C@H]6[C@H](C)CC[C@@H]([C@H]3C)[C@@]46OO5)CC2)O[C@@H]2O[C@@]3(C)CC[C@H]4[C@H](C)CC[C@@H]1[C@@]24OO3 please.
Ans. 43

Qu. Tell me measured GI50 for COCC(CO[C@H]1O[C@@H]2O[C@@]3(C)CC[C@H]4[C@H](C)CC[C@@H]([C@H]1C)[C@@]24OO3)O[C@H]1O[C@@H]2O[C@@]3(C)CC[C@H]4[C@H](C)CC[C@@H]([C@H]1C)[C@@]24OO3 (some centres not stated) please.
Ans. 81

---
Qu. Tell me measured GI50 for C[C@H]1[C@@H](O[C@H]2CC[C@@H](O[C@H]3O[C@@H]4O[C@@]5(C)CC[C@H]6[C@H](C)CC[C@@H]([C@H]3C)[C@@]46OO5)CC2)O[C@@H]2O[C@@]3(C)CC[C@H]4[C@H](C)CC[C@@H]1[C@@]24OO3 please.
Ans. 22

Qu. Tell me measured GI50 for C[C@H]1[C@H](OCCCCO[C@H]2O[C@@H]3O[C@@]4(C)CC[C@H]5[C@H](C)CC[C@@H]([C@H]2C)[C@@]35OO4)O[C@@H]2O[C@@]3(C)CC[C@H]4[C@H](C)CC[C@@H]1[C@@]24OO3 please.
Ans. 20

Qu. Tell me measured GI50 for C=C1[C@@H](OCCCO[C@H]2O[C@@H]3O[C@@]4(C)CC[C@H]5[C@H](C)CC[C@@H](C2=C)[C@@]35OO4)O[C@@H]2O[C@@]3(C)CC[C@H]4[C@H](C)CC[C@@H]1[C@@]24OO3 please.
Ans. 1070

Qu. Tell me measured GI50 for C[C@H]1[C@@H](OCCO[C@H]2O[C@@H]3O[C@@]4(C)CC[C@H]5[C@H](C)CC[C@@H]([C@H]2C)[C@@]35OO4)O[C@@H]2O[C@@]3(C)CC[C@H]4[C@H](C)CC[C@@H]1[C@@]24OO3 please.
Ans. 1150

Qu. Tell me measured GI50 for C[C@H]1[C@@H](O[C@@H](C)CO[C@H]2O[C@@H]3O[C@@]4(C)CC[C@H]5[C@H](C)CC[C@@H]([C@H]2C)[C@@]35OO4)O[C@@H]2O[C@@]3(C)CC[C@H]4[C@H](C)CC[C@@H]1[C@@]24OO3 please.
Ans. 37

Qu. Tell me measured GI50 for C[C@H]1[C@@H](OCC(CO[C@H]2O[C@@H]3O[C@@]4(C)CC[C@H]5[C@H](C)CC[C@@H]([C@H]2C)[C@@]35OO4)OC(=O)CCC(=O)O)O[C@@H]2O[C@@]3(C)CC[C@H]4[C@H](C)CC[C@@H]1[C@@]24OO3 (some centres not stated) please.
Ans. 10

Qu. Tell me measured GI50 for C[C@H]1[C@H](OCCO[C@H]2O[C@@H]3O[C@@]4(C)CC[C@H]5[C@H](C)CC[C@@H]([C@H]2C)[C@@]35OO4)O[C@@H]2O[C@@]3(C)CC[C@H]4[C@H](C)CC[C@@H]1[C@@]24OO3 please.
Ans. 36
